All values here come from patent US4962111A.

# Test system: Mycobacterium tuberculosis
# Assay details: microbe, parasite or virus in culture
# Type: cell-based
# Particulars: Mycobacterium tuberculosis, pH 5.8, M. tb. GLA, 99% (2 log) inhibition, read-out: MIC
Here, each record is paired with measured MIC data.
Quick reminder: number only, in µg/mL, skip the unit.

Guide cases for MIC, answers given:
- Cc1ccc(OC(=O)c2cnccn2)cc1 [p-Tolyl Pyrazinoate]: 6.25
- CCCOC(=O)c1cnccn1 [n-Propyl Pyrazinoate]: 6.25
- C=CCOC(=O)c1cnccn1 [Allyl Pyrazinoate]: 6.25

Please report the recorded MIC for O=C(OCC(F)(F)F)c1cnccn1 [β, β, β-Trifluoroethyl Pyrazinoate] .
12.5
